The reader will find reported MCC values listed item by item below.
procedureDetails: Cytotoxicity against human HEL cells assessed as alteration to cell morphology by microscopic analysis
Type: cell-based

[
  {
    "compound": "C[C@H](NP(=O)(OCC(CO)OCn1cnc2c(=O)[nH]c(N)nc21)Oc1ccccc1)C(=O)OCc1ccccc1 (stereo partly drawn)",
    "MCC": "> 100 µM"
  }
]

Exam item: Look up MCC: CCCOC(=O)[C@H](C)NP(=O)(OCC(CCn1cnc2c(OC)nc(N)nc21)COP(=O)(N[C@@H](C)C(=O)OCCC)Oc1cccc2ccccc12)Oc1cccc2ccccc12 (stereo partly drawn)
Marked response: 50 to 100 µM

Exam item: Look up MCC: C[C@H](NP1(=O)OCC(OCn2cnc3c(Cl)nc(N)nc32)CO1)C(=O)OCc1ccccc1 (stereo partly drawn)
Marked response: > 100 µM

---

The reader will find reported CC50 values listed item by item below.
Tested on: HEL
procedureDetails: Cytotoxicity against human HEL cells assessed as cell growth inhibition by cell counting method
Assay type: cell-based

Please review the following examples before continuing.
[
  {
    "molecule": "C[C@H](NP(=O)(OCC(CCn1cnc2c(=O)[nH]c(N)nc21)COP(=O)(N[C@@H](C)C(=O)OCc1ccccc1)Oc1ccccc1)Oc1ccccc1)C(=O)OCc1ccccc1 (stereo not given in full)",
    "propertyName": "CC50",
    "result": "≥ 100 µM"
  },
  {
    "molecule": "COc1nc(N)nc2c1ncn2CCC(COP(=O)(N[C@@H](C)C(=O)OCc1ccccc1)Oc1ccccc1)COP(=O)(N[C@@H](C)C(=O)OCc1ccccc1)Oc1ccccc1 (stereo not given in full)",
    "propertyName": "CC50",
    "result": "25 µM"
  }
]

Exam item: Form entry - test system: HEL; read-out: CC50; molecule: C[C@H](NP(=O)(OCC(COP(=O)(N[C@@H](C)C(=O)OCc1ccccc1)Oc1ccccc1)SCn1cnc2c(=O)[nH]c(N)nc21)Oc1ccccc1)C(=O)OCc1ccccc1 (stereo not given in full)
Marked response: > 100 µM

Exam item: Form entry - test system: HEL; read-out: CC50; molecule: CC(C)(NP(=O)(OCC(CO)OCn1cnc2c(=O)[nH]c(N)nc21)Oc1cccc2ccccc12)C(=O)OCc1ccccc1 (stereo not given)
Marked response: > 100 µM

Exam item: Form entry - test system: HEL; read-out: CC50; molecule: CCC(C)(C)COC(=O)[C@H](C)NP(=O)(OCC(CO)CCn1cnc2c(OC)nc(N)nc21)Oc1cccc2ccccc12 (stereo not given in full)
Marked response: 28 µM

Exam item: Form entry - test system: HEL; read-out: CC50; molecule: CC(C)(NP(=O)(OCC(CO)CCn1cnc2c(=O)[nH]c(N)nc21)Oc1cccc2ccccc12)C(=O)OCc1ccccc1 (stereo not given)
Marked response: > 100 µM

Exam item: Form entry - test system: HEL; read-out: CC50; molecule: CC(C)(NP(=O)(OCC(COP(=O)(NC(C)(C)C(=O)OCc1ccccc1)Oc1cccc2ccccc12)OCn1cnc2c(=O)[nH]c(N)nc21)Oc1cccc2ccccc12)C(=O)OCc1ccccc1 (stereo not given)
Marked response: > 100 µM

Exam item: Form entry - test system: HEL; read-out: CC50; molecule: CC(C)(NP(=O)(OCC(CO)OCn1cnc2c(=O)[nH]c(N)nc21)Oc1ccccc1)C(=O)OCc1ccccc1 (stereo not given)
Marked response: > 100 µM

Exam item: Form entry - test system: HEL; read-out: CC50; molecule: C[C@H](NP(=O)(OCC(COP(=O)(N[C@@H](C)C(=O)OCc1ccccc1)Oc1cccc2ccccc12)SCn1cnc2c(=O)[nH]c(/N=C/N(C)C)nc21)Oc1cccc2ccccc12)C(=O)OCc1ccccc1 (stereo not given in full)
Marked response: 30 µM

Exam item: Form entry - test system: HEL; read-out: CC50; molecule: COc1nc(N)nc2c1ncn2CCC(CO)COP(=O)(N[C@@H](C)C(=O)OCc1ccccc1)Oc1ccccc1 (stereo not given in full)
Marked response: ≥ 83 µM

Source of measurements: ChEMBL document CHEMBL4017507
